Tested on: clinical Escherichia coli YT1-30
experimentDescription: Minimum inhibitory concentration (MIC), NCCLS method, 30 clinical strains
Assay type: cell-based
Design: unit not given here
testContext: strain YT12
Structures can show the parent of a compound that is named as a salt.
measuredEndpoint: Minimum inhibitory concentration (MIC)

Item: CCC[C@@H]1C[C@@H](C(=O)N[C@@H]([C@H]2O[C@H](SC)[C@H](O)[C@@H](O)[C@H]2O)[C@H](C)Cl)N(C)C1 [Clindamycin hydrochloride] Test system: clinical Escherichia coli YT1-30 Read-out: Minimum inhibitory concentration (MIC) Value: ?
25000

Item: `CC1(C)S[C@@H]2[C@H](NC(=O)[C@H](N)c3ccccc3)C(=O)N2[C@H]1C(=O)O` Test system: clinical Escherichia coli YT1-30 Read-out: Minimum inhibitory concentration (MIC) Value: ?
6250

Item: `CN(C)[C@@H]1C(O)=C(C(N)=O)C(=O)[C@@]2(O)C(O)=C3C(=O)c4c(O)cccc4[C@@](C)(O)[C@H]3C[C@@H]12` Test system: clinical Escherichia coli YT1-30 Read-out: Minimum inhibitory concentration (MIC) Value: ?
6250

Item: `NCC[C@H](O)C(=O)N[C@@H]1C[C@H](N)[C@@H](O[C@H]2O[C@H](CN)[C@@H](O)[C@H](O)[C@H]2O)[C@H](O)[C@H]1O[C@H]1O[C@H](CO)[C@@H](O)[C@H](N)[C@H]1O` Test system: clinical Escherichia coli YT1-30 Read-out: Minimum inhibitory concentration (MIC) Value: ?
2500

Item: `CC(C)(O/N=C(\C(=O)N[C@@H]1C(=O)N2C(C(=O)[O-])=C(C[n+]3ccccc3)CS[C@H]12)c1csc(N)n1)C(=O)O` Test system: clinical Escherichia coli YT1-30 Read-out: Minimum inhibitory concentration (MIC) Value: ?
0.488

Item: CNC1CCCN(c2c(F)cc3c(=O)c(C(=O)O)cn(C4CC4)c3c2OC)C1 (stereo not shown) Test system: clinical Escherichia coli YT1-30 Read-out: Minimum inhibitory concentration (MIC) Value: ?
62.5

Item: `CC[C@H]1OC(=O)[C@H](C)[C@@H](O[C@H]2C[C@@](C)(OC)[C@@H](O)[C@H](C)O2)[C@H](C)[C@@H](O[C@@H]2O[C@H](C)C[C@H](N(C)C)[C@H]2O)[C@](C)(O)C[C@@H](C)/C(=N\OCOCCOC)[C@H](C)[C@@H](O)[C@]1(C)O` Test system: clinical Escherichia coli YT1-30 Read-out: Minimum inhibitory concentration (MIC) Value: ?
625

---

Test system: clinical Escherichia coli YT1-30
experimentDescription: Minimum inhibitory concentration (MIC), NCCLS method, 30 clinical strains
Type: cell-based
Design: unit not given here
testContext: strain YT25
Structures can show the parent of a compound that is named as a salt.
measuredEndpoint: Minimum inhibitory concentration (MIC)
// no unit string in output, number only

State the recorded Minimum inhibitory concentration (MIC) for this entry: CCC[C@@H]1C[C@@H](C(=O)N[C@@H]([C@H]2O[C@H](SC)[C@H](O)[C@@H](O)[C@H]2O)[C@H](C)Cl)N(C)C1 [Clindamycin hydrochloride]
390.625

State the recorded Minimum inhibitory concentration (MIC) for this entry: CNC1CCCN(c2c(F)cc3c(=O)c(C(=O)O)cn(C4CC4)c3c2OC)C1 (stereo not shown) [Balofloxacin]
0.244

State the recorded Minimum inhibitory concentration (MIC) for this entry: NCC[C@H](O)C(=O)N[C@@H]1C[C@H](N)[C@@H](O[C@H]2O[C@H](CN)[C@@H](O)[C@H](O)[C@H]2O)[C@H](O)[C@H]1O[C@H]1O[C@H](CO)[C@@H](O)[C@H](N)[C@H]1O [Amikacin]
2500

State the recorded Minimum inhibitory concentration (MIC) for this entry: CN(C)[C@@H]1C(O)=C(C(N)=O)C(=O)[C@@]2(O)C(O)=C3C(=O)c4c(O)cccc4[C@@](C)(O)[C@H]3C[C@@H]12 [Tetracycline]
6.103

State the recorded Minimum inhibitory concentration (MIC) for this entry: CC[C@H]1OC(=O)[C@H](C)[C@@H](O[C@H]2C[C@@](C)(OC)[C@@H](O)[C@H](C)O2)[C@H](C)[C@@H](O[C@@H]2O[C@H](C)C[C@H](N(C)C)[C@H]2O)[C@](C)(O)C[C@@H](C)/C(=N\OCOCCOC)[C@H](C)[C@@H](O)[C@]1(C)O [Roxithromycin]
625

State the recorded Minimum inhibitory concentration (MIC) for this entry: CC(C)(O/N=C(\C(=O)N[C@@H]1C(=O)N2C(C(=O)[O-])=C(C[n+]3ccccc3)CS[C@H]12)c1csc(N)n1)C(=O)O [Ceftazidime]
31.25

State the recorded Minimum inhibitory concentration (MIC) for this entry: CC1(C)S[C@@H]2[C@H](NC(=O)[C@H](N)c3ccccc3)C(=O)N2[C@H]1C(=O)O [Ampicillin]
6250
